Source of measurements: the supplement of paper PMC10307832

Tested on: SK-MES-1
Experiment: relative viability (nuclei count vs DMSO), 5 days (fraction); higher = more cells survive
Conditions: first compound 0.03162 µM
// reported relative viability for each item listed
metric: relative viability

molecule="CCN(CC)CCCCNc1ncc2cc(-c3cc(OC)cc(OC)c3)c(NC(=O)NC(C)(C)C)nc2n1 + CCNC(=O)c1noc(-c2cc(C(C)C)c(O)cc2O)c1-c1ccc(CN2CCOCC2)cc1 [Luminespib] (partner 0.01 µM)" assay_value=0.762
molecule="O=c1cc(N2CCOCC2)oc2c(-c3cccc4c3sc3ccccc34)cccc12 + CS(=O)(=O)N1CCN(Cc2cc3nc(-c4cccc5[nH]ncc45)nc(N4CCOCC4)c3s2)CC1 [Pictilisib] (partner 1 µM)" assay_value=0.314
